Reference for the values: patent US20240360157A1

- system-under-test: human TYK2 catalytic kinase (JH1) domain (Homo sapiens (Human), UniProt P29597)
- Sequence (P29597 897-1176): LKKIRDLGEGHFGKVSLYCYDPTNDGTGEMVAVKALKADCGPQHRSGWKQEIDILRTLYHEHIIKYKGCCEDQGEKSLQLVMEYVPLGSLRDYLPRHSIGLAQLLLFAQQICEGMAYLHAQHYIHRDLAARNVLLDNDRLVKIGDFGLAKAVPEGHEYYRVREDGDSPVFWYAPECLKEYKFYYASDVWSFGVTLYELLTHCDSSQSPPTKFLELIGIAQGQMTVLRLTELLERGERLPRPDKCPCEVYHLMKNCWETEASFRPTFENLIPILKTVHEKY
- experiment-notes: ADP-Glo Kinase Assay, recombinant TYK2 catalytic kinase (JH1) domain
- Type: biochemical
- test-conditions: recombinant JH1 domain 2 nM, 10 μM ATP, JAK3-974 peptide, mean, read-out: TYK2 biochem IC50 (nM) Mean
Doc: threshold 30 nM (exclusive). Items with IC50 beneath it return YES; others return NO.

Record excerpt, results attached:
molecule | system-under-test | category
O=C([C@@H]1C[C@H]1F)N1C2CCC1CN(c1ncnn3cc(-c4ccnc(F)c4)cc13)C2 [Example 164] | human TYK2 catalytic kinase (JH1) domain (Homo sapiens (Human), UniProt P29597) | NO
N#Cc1cc(-c2cc3c(N4CC5CCC(C4)N5C(=O)[C@@H]4C[C@H]4F)ncnc3[nH]2)ccn1 [Example 233] | human TYK2 catalytic kinase (JH1) domain (Homo sapiens (Human), UniProt P29597) | YES
O=C([C@@H]1CC1(F)F)N1C2CCC1CN(c1ccnn3cc(-c4cnn(C(F)F)c4)cc13)C2 [Example 21] | human TYK2 catalytic kinase (JH1) domain (Homo sapiens (Human), UniProt P29597) | YES
Cn1cc(-c2cc3c(N4CC5CCC(C4)N5C(=O)[C@@H]4C[C@H]4F)ncnn3c2)c(F)n1 [Example 96] | human TYK2 catalytic kinase (JH1) domain (Homo sapiens (Human), UniProt P29597) | YES
O=C(C1C[C@H]1F)N1C2CCC1CN(c1ncnc3[nH]c(-c4cncc(F)c4)cc13)C2 (some centres unmarked) [Example 229] | human TYK2 catalytic kinase (JH1) domain (Homo sapiens (Human), UniProt P29597) | NO

Decide: IC50 of Cn1cnc(-c2cc3c(N4CC5CCC(C4)N5C(=O)C4CC4)ncnn3c2)c1 [Example 143] strictly below 30 nM?
NO

Decide: IC50 of Cn1cc(-c2cc3c(N4CC5CCC(C4)N5C(=O)C4CC4)ncnc3[nH]2)cn1 [Example 220] strictly below 30 nM?
NO

====

- system-under-test: human JAK2 catalytic kinase (JH1) domain (Homo sapiens (Human), UniProt O60674)
- Sequence (O60674 849-1124): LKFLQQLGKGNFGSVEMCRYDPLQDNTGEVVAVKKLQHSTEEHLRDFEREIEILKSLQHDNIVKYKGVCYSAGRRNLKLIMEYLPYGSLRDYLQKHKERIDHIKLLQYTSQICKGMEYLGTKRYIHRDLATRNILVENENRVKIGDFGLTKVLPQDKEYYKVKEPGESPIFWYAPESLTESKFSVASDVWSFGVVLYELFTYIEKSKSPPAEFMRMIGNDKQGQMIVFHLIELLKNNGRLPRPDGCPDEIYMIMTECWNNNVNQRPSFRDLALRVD
- experiment-notes: ADP-Glo Kinase Assay, recombinant JAK2 catalytic kinase (JH1) domain
- Format: biochemical
- test-conditions: recombinant JH1 domain 0.2 nM, 15 μM ATP, JAK3-974 peptide, mean, read-out: JAK2 biochem IC50 (nM) Mean
measured-metric: IC50 (nM)
Give bare numbers, in nM.

item-smiles | result
O=C([C@@H]1C[C@H]1F)N1C2CCC1CN(c1ccnn3cc(-c4ccnc(N5CC(F)(F)C5)c4)cc13)C2 | 636
O=C([C@@H]1CC1(F)F)N1C2CCC1CN(c1ncnc3[nH]c(-c4cnn(C(F)F)c4)cc13)C2 | 128
O=C(N1C2CCC1CN(c1ncnn3cc(-c4cnn(C(F)F)c4)cc13)C2)C1(C(F)(F)F)CC1 | 9490

// batch mode: one IC50 value per listed entry
1. Cn1cnc(-c2cc3c(N4CC5CCC(C4)N5C(=O)C4CC4)ncnn3c2)c1
2. O=C([C@@H]1C[C@H]1F)N1C2CCC1CN(c1ncnn3cc(-c4ccnc(F)c4)cc13)C2
3. COc1nccc(-c2cc3c(N4CC5CCC(C4)N5C(=O)[C@@H]4C[C@H]4F)ccnc3[nH]2)c1F
4. O=C(C1CC1)N1C2CCC1CN(c1ncnn3cc(-c4cnn(CF)c4)cc13)C2
5. Cn1cc(-c2cc3c(N4CC5CCC(C4)N5S(=O)(=O)C4CC4)ccnn3c2)cn1

9940
1300
18
5180
208

====

- system-under-test: human JAK1 catalytic kinase (JH1) domain (Homo sapiens (Human), UniProt P23458)
- Sequence (P23458 875-1153): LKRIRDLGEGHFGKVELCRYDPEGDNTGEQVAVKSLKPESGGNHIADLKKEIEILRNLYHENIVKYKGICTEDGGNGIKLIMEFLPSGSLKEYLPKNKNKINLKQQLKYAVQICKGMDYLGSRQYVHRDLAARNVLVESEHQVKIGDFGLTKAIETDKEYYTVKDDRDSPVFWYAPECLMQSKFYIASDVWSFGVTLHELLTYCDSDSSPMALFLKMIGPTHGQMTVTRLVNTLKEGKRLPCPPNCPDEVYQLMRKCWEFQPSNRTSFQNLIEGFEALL
- experiment-notes: ADP-Glo Kinase Assay, recombinant JAK1 catalytic kinase (JH1) domain
- Format: biochemical
- test-conditions: recombinant JH1 domain 4 nM, 35 μM ATP, JAK3-342 peptide, mean, read-out: JAK1 biochem IC50 (nM) Mean
measured-metric: log10(IC50) (log10 of the value in nM)
Remember, log10 of IC50, in nM.

Example entries and their recorded answers appear below.
item-smiles | system-under-test | log10(IC50)
N#Cc1ccc(-c2cc3c(N4CC5CCC(C4)N5C(=O)[C@@H]4C[C@H]4F)ccnn3c2)cn1 | human JAK1 catalytic kinase (JH1) domain (Homo sapiens (Human), UniProt P23458) | 1.89
Cn1cc(-c2cc3c(N4CC5CCC(C4)N5C(=O)C4CC4)ncnc3[nH]2)cn1 | human JAK1 catalytic kinase (JH1) domain (Homo sapiens (Human), UniProt P23458) | 2.38
Cn1cc(-c2cc3c(N4CC5CCC(C4)N5C(=O)[C@@H]4C[C@H]4F)ccnc3[nH]2)c(F)n1 | human JAK1 catalytic kinase (JH1) domain (Homo sapiens (Human), UniProt P23458) | 1.26
CNc1ccc(-c2cc3c(N4CC5CCC(C4)N5C(=O)[C@@H]4C[C@H]4F)ccnn3c2)cn1 | human JAK1 catalytic kinase (JH1) domain (Homo sapiens (Human), UniProt P23458) | 1.84
O=C([C@@H]1C[C@H]1F)N1C2CCC1CN(c1ccnn3cc(-c4ccnc(C(F)(F)F)c4)cc13)C2 | human JAK1 catalytic kinase (JH1) domain (Homo sapiens (Human), UniProt P23458) | 1.57

// batch mode: one log10(IC50) value per listed entry
1. COc1ccc(-c2cc3c(N4CC5CCC(C4)N5C(=O)[C@@H]4C[C@H]4F)ccnn3c2)nn1
2. Cn1cc(-c2cc3c(N4CC5CCC(C4)N5C(=O)CC(F)(F)F)ncnn3c2)cn1

[2.49, 3.54]

====

- system-under-test: human JAK2 catalytic kinase (JH1) domain (Homo sapiens (Human))
- experiment-notes: ADP-Glo Kinase Assay, recombinant JAK2 catalytic kinase (JH1) domain
- Type: biochemical
- test-conditions: recombinant JH1 domain 0.2 nM, 15 μM ATP, JAK3-974 peptide, mean, read-out: JAK2 biochem IC50 (nM) Mean
Doc: threshold 5000 nM (exclusive). Items with IC50 beneath it return Condition met; others return Condition not met.

Record excerpt, results attached:
molecule | system-under-test | category
Cn1cc(-c2cc3c(N4CC5CCC(C4)N5S(=O)(=O)C4CC4)ncnn3c2)cn1 [Example 187] | human JAK2 catalytic kinase (JH1) domain (Homo sapiens (Human)) | Condition not met
CNc1cc(-c2cc3c(N4CC5CCC(C4)N5C(=O)[C@@H]4C[C@H]4F)ncnn3c2)ccn1 [Example 94] | human JAK2 catalytic kinase (JH1) domain (Homo sapiens (Human)) | Condition met
Cn1cc(-c2cc3c(N4CC5CCC(C4)N5C(=O)C4CCC4)ncnn3c2)cn1 [Example 67] | human JAK2 catalytic kinase (JH1) domain (Homo sapiens (Human)) | Condition not met

Decide: IC50 of N#Cc1cc(-c2cc3c(N4CC5CCC(C4)N5C(=O)[C@@H]4C[C@H]4F)ncnc3[nH]2)ccn1 [Example 233] strictly below 5000 nM?
Condition met

Decide: IC50 of O=C([C@@H]1C[C@H]1F)N1C2CCC1CN(c1ccnn3cc(C4CCOC4)cc13)C2 (some centres unmarked) [Example 175] strictly below 5000 nM?
Condition not met

Decide: IC50 of O=C(C1CC1)N1C2CCC1CN(c1ncnn3cc(-c4cnn([C@H]5CCOC5)c4)cc13)C2 [Example 157] strictly below 5000 nM?
Condition met

Decide: IC50 of Cn1cc(-c2cc3c(N4CC5CCC(C4)N5C(=O)[C@H]4C[C@H]4F)ncnn3c2)cn1 (single isomer, unassigned) [Example 79] strictly below 5000 nM?
Condition not met

Decide: IC50 of O=C([C@@H]1C[C@H]1F)N1C2CCC1CN(c1ccnn3cc(-c4ccnc(F)c4)cc13)C2 [Example 170] strictly below 5000 nM?
Condition met

====

- system-under-test: human TYK2 catalytic kinase (JH1) domain (Homo sapiens (Human))
- experiment-notes: ADP-Glo Kinase Assay, recombinant TYK2 catalytic kinase (JH1) domain
- Type: biochemical
- test-conditions: recombinant JH1 domain 2 nM, 10 μM ATP, JAK3-974 peptide, mean, read-out: TYK2 biochem IC50 (nM) Mean
Give log10 IC50 for every item shown.
Remember, log10 of IC50, in nM.

compound | log10 IC50
CCC(=O)N1C2CCC1CN(c1ncnn3cc(-c4cnn(C)c4)cc13)C2 | 2.97
O=C(C1CCC1F)N1C2CCC1CN(c1ncnn3cc(-c4cnn(C(F)F)c4)cc13)C2 (centres unmarked) | 2.31
O=C(C1CC1)N1C2CCC1CN(c1ncnn3cc(-c4cnn(C(F)F)c4)cc13)C2 [Example 144] | 2.79

// batch mode: one log10 IC50 value per listed entry
1. O=C(C1CC1)N1C2CCC1CN(c1ncnn3cc(-c4ccncc4)cc13)C2
2. N#Cc1cc(-c2cc3c(N4CC5CCC(C4)N5C(=O)[C@@H]4C[C@H]4F)ccnn3c2)ccn1

1. 2.36
2. 0.53
